Hello, the source for this data is patent US9518015B2, in case you need it.

Target: human EP1 receptor (Homo sapiens, UniProt P34995)
Assay: Test 2: Measurement of IP1 responses by HTRF, suspended HEK-293 cells stably expressing human EP1 receptors, PGE2 30 nM
Format: cell-based
Parameters: expressed in transfected cells
Conditions: HEK293, at 10 μM, read-out: Results of Test 2 (Functional assay), % inh
value-kind: inhibition at 10 µM

molecular-string: O=C(O)COc1cccc2c1ccn2Cc1cc(Cl)ccc1OCC1CC1
inhibition at 10 µM: > 75%
//
molecular-string: O=C(O)c1ccc2c(ccn2Cc2cc(Cl)ccc2OCc2ccc(F)cc2C(F)(F)F)c1
inhibition at 10 µM: 45 to 75%
//
molecular-string: O=C(O)c1cccc2c1ccn2Cc1cc(Cl)cc(Cl)c1OCc1ccc(Cl)cc1F
inhibition at 10 µM: 45 to 75%

Could I get inhibition at 10 µM for every one of these entries?
1. O=C(O)c1cccc2c1ccn2Cc1cc(F)ccc1OCc1c(F)cccc1F
2. O=C(O)c1cccc2c1ccn2Cc1cc(F)ccc1OCc1cc(F)c(F)cc1Cl

1. > 75%
2. 45 to 75%

====

Could you please report measured inhibition at 10 µM for the items listed next?
Molecular target: human EP1 receptor (Homo sapiens)
Assay: Test 2: Measurement of IP1 responses by HTRF, suspended HEK-293 cells stably expressing human EP1 receptors, PGE2 30 nM
Format: cell-based
Set-up: expressed in transfected cells
Details: HEK293, at 10 μM, read-out: Results of Test 2 (Functional assay), % inh

Examples from the recorded data:
molecular-string: O=C(O)c1cccc2c1ccn2Cc1cc(Br)ccc1OCc1ccccc1
inhibition at 10 µM: > 75%
--
molecular-string: O=C(O)c1cccc2c1ccn2Cc1ncccc1OCc1ccc(Cl)cc1F
inhibition at 10 µM: 45 to 75%
--
molecular-string: O=C(O)/C=C/c1cccc2c1ccn2Cc1cc(Cl)ccc1OCC1CC1
inhibition at 10 µM: > 75%
--
molecular-string: O=C(O)c1ccc2c(ccn2Cc2cc(C(F)(F)F)ccc2OCc2ccc(Br)cc2F)c1
inhibition at 10 µM: > 75%

Could I get inhibition at 10 µM for every one of these entries?
1. O=C(O)c1ccc2c(ccn2Cc2cc(Cl)ccc2OCc2ccc(Cl)cc2F)c1
2. O=C(O)c1cccc2c1ccn2Cc1cc(Cl)ccc1OCc1cc(F)cc(F)c1

1. 45 to 75%
2. > 75%

Could I get inhibition at 10 µM for every one of these entries?
1. O=C(O)c1ccc2c(ccn2Cc2cc(Br)ccc2OCc2ccc(F)cc2C(F)(F)F)c1
2. O=C(O)c1cccc2c1ccn2Cc1cc(Cl)cc(Br)c1OCc1ccc(Br)cc1F

["> 75%", "45 to 75%"]

Using the record for O=C(O)/C=C/c1cccc2c1ccn2Cc1cc(Cl)ccc1OCc1ccc(F)cc1F , state its measured inhibition at 10 µM.
> 75%

====

Could you please report measured inhibition at 10 µM for the items listed next?
Target: human EP1 receptor (Homo sapiens, UniProt P34995)
Experiment: Test 3: Measurement of IP1 responses by HTRF, HEK-293 cells stably expressing human EP1 receptors incubated o/n, PGE2 10 nM
Type: cell-based
Design: expressed in transfected cells
Conditions: HEK293, read-out: Results of Test 3 (Functional assay), % inh

Examples from the recorded data:
molecular-string: CC(C)COc1ccc(Cl)cc1Cn1cc(CCO)c2c(C(=O)O)cccc21
value-kind: inhibition at 10 µM
result: > 75%
--
molecular-string: O=C(O)c1cccc2c1OCCN2Cc1cc(Cl)ccc1OC1CCC1
value-kind: inhibition at 10 µM
result: > 75%
--
molecular-string: O=C(O)c1ccnc2c1cnn2Cc1cc(Cl)ccc1OCc1ccc(Cl)cc1F
value-kind: inhibition at 10 µM
result: > 75%
--
molecular-string: O=C(O)c1cccc2c1OCCN2Cc1cc(F)ccc1OCc1ccc(F)cc1Cl
value-kind: inhibition at 10 µM
result: > 75%
--
molecular-string: O=C(O)c1ccnc2c1CCN2Cc1cc(Cl)ccc1OCc1ccc(Cl)cc1F
value-kind: inhibition at 10 µM
result: > 75%
--
molecular-string: O=C(O)c1cccc2c1CC(=O)N2Cc1cc(Cl)ccc1OCc1ccc(Cl)cc1F
value-kind: inhibition at 10 µM
result: > 75%

Could I get inhibition at 10 µM for every one of these entries?
1. CC(C)COc1ccc(F)cc1CN1CCOc2c(C(=O)O)cccc21
2. COCc1cn(Cc2cc(Cl)ccc2OCc2ccc(Cl)cc2F)c2cccc(C(=O)O)c12
3. O=C(O)c1cccc2c1c(CO)cn2Cc1ccccc1OCc1ccc(Cl)cc1F

1: > 75%; 2: > 75%; 3: > 75%

====

Biological target: human EP1 receptor (Homo sapiens, UniProt P34995)
Sequence (P34995 1-402): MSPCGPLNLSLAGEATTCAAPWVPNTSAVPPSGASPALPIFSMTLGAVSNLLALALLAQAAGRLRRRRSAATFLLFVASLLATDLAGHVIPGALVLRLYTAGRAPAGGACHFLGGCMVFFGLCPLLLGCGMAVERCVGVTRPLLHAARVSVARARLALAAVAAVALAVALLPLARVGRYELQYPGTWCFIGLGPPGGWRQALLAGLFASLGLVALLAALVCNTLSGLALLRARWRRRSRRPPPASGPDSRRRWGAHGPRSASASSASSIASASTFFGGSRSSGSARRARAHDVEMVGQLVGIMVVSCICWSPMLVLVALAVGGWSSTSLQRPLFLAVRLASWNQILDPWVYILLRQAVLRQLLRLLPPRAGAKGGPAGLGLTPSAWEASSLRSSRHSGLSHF
Experiment: Test 2: Measurement of IP1 responses by HTRF, suspended HEK-293 cells stably expressing human EP1 receptors, PGE2 30 nM
Assay type: cell-based
Design: expressed in transfected cells
Conditions: HEK293, at 10 μM, read-out: Results of Test 2 (Functional assay), % inh
Could you please report measured inhibition at 10 µM for the items listed next?

Examples from the recorded data:
molecule: O=C(O)c1cccc2c1ccn2Cc1cc(F)ccc1OCc1ccc(F)cc1F [Example 53]
inhibition at 10 µM: > 75%
//
molecule: O=C(O)c1cccc2c1CCCN2Cc1cc(Cl)ccc1OCc1ccc(Cl)cc1F [Example 94]
inhibition at 10 µM: > 75%
//
molecule: O=C(O)c1cccc2c1ccn2Cc1cc(Cl)ccc1OCC1CC1 [Example 7]
inhibition at 10 µM: > 75%

Could I get inhibition at 10 µM for every one of these entries?
1. O=C(O)c1cccc2c1ccn2Cc1cc(C(F)(F)F)ccc1OCc1c(F)cccc1F [Example 37]
2. O=C(O)c1cccc2c1ncn2Cc1cc(Cl)ccc1OCc1ccc(Cl)cc1F [Example 92]

> 75%
45 to 75%

====

Target: human EP1 receptor (Homo sapiens, UniProt P34995)
Assay: Test 2: Measurement of IP1 responses by HTRF, suspended HEK-293 cells stably expressing human EP1 receptors, PGE2 30 nM
Assay type: cell-based
Parameters: expressed in transfected cells
Details: HEK293, at 10 μM, read-out: Results of Test 2 (Functional assay), % inh
value-kind: inhibition at 10 µM

Examples from the recorded data:
molecular-string: CC(C)COc1cc(Cl)ccc1Cn1ccc2c(C(=O)O)cccc21
inhibition at 10 µM: 45 to 75%
--
molecular-string: O=C(O)c1cccc2c1ccn2Cc1cc(Cl)ccc1OCc1ccc(F)cc1F
inhibition at 10 µM: > 75%
--
molecular-string: O=C(O)c1cccc2c1ccn2Cc1cc(Br)ccc1OCc1ccc(Cl)cc1F
inhibition at 10 µM: > 75%
--
molecular-string: O=C(O)c1ccc2ccn(Cc3cc(Br)ccc3OCc3ccccc3)c2c1
inhibition at 10 µM: > 75%

Kindly review the next molecule as well.
Using the record for O=C(O)/C=C/c1cccc2c1ccn2Cc1cc(Br)ccc1OCC1CC1 , state its measured inhibition at 10 µM.
> 75%

====

Molecular target: human EP1 receptor (Homo sapiens)
Test: Test 1: Human EP1 receptor radioligand binding assay ([3H]-PGE2, transfected HEK-293 cell membranes)
Parameters: expressed in transfected cells; host or cells: HEK-293 cell membranes
Conditions: read-out: Results of Test 1 (Binding assay), % inh
Where a name gives a salt, the structure may show the parent alone.
value-kind: inhibition at 10 µM

compound: O=C(O)c1ccc2c(ccn2Cc2cc(F)ccc2OCc2ccc(F)c(Br)c2)c1 [Example 68]
inhibition at 10 µM: 45 to 75%

Could I get inhibition at 10 µM for every one of these entries?
1. CC(C)COc1ccc(F)cc1Cn1ccc2c(C(=O)O)cccc21 [Example 108]
2. C=C(CF)COc1ccc(Cl)cc1CN1CCCc2c(C(=O)O)cccc21 [Example 182]
3. O=C(O)c1cccc2c1ccn2Cc1cc(C(F)(F)F)ccc1OCc1ccc(Br)cc1F [Example 50]

45 to 75%
> 75%
> 75%

Could I get inhibition at 10 µM for every one of these entries?
1. O=C(O)c1cccc2c1ccn2Cc1cc(Cl)ccc1OCc1ccccc1F [Example 45]
2. O=C(O)c1ccnc2c1c(CO)cn2Cc1cc(Cl)ccc1OCc1ccc(F)cc1F [Example 152]
3. O=C(O)c1cccc2c1cnn2Cc1cc(Cl)ccc1OC1CCCC1 [Example 133]
4. O=C(O)c1ccc(F)c2c1ccn2Cc1ccccc1OCc1ccc(F)cc1F [Example 140]
5. CC(C)COc1ccc(F)cc1CN1CCOc2c(C(=O)O)cccc21 [Example 195]

["> 75%", "> 75%", "> 75%", "45 to 75%", "> 75%"]

Could I get inhibition at 10 µM for every one of these entries?
1. O=C(O)c1cccc2c1CCCN2Cc1cc(Cl)ccc1OC1CCC1 [Example 178]
2. CC(C)COc1ccc(F)cc1CN1CCc2c(C(=O)O)cccc21 [Example 170]
3. CN(C)S(=O)(=O)NC(=O)c1cccc2c1CCCN2Cc1cc(Cl)ccc1OCc1ccc(Cl)cc1F [Example 237, sodium salt]
4. O=C(O)c1cccc2c1OCCN2Cc1ccccc1OCc1ccc(Cl)cc1F [Example 119]
5. O=C(O)c1cccc2c1ccn2Cc1cc(Cl)ccc1OCCF [Example 111]

["> 75%", "> 75%", "> 75%", "> 75%", "45 to 75%"]
